// values below are reported % of injected dose remaining in liver
assay: Peptoid quantity remaining in liver by HPLC-TOF mass spectrometry; format: in vivo; conditions: liver homogenate; note: time not given here
Non-standard residues stand in square brackets, D forms with d. Residues, ends and D or L forms follow the SMILES beside them. Gly(N-(3-decanoyloxypropyl)) = CCCCCCCCCC(=O)OCCCNCC(=O)O; N(2-decanoyloxyethyl)Gly = CCCCCCCCCC(=O)OCCNCC(=O)O; N(2-ethylhexyl)Gly = CCCCC(CC)CNCC(=O)O; N(CH(CH2OH)2)Gly = O=C(O)CNC(CO)CO; NDecylGly = CCCCCCCCCCNCC(=O)O; NHexGly = CCCCCCNCC(=O)O
Expressed in %, but write only the number.

1. CCCCCCCCCC(=O)OCCN(CC(N)=O)C(=O)CN(CCOC(=O)CCCCCCCCC)C(=O)CN(CC(CC)CCCC)C(=O)CN(CCOC(=O)CCCCCCCCC)C(=O)CN(CCOC(=O)CCCCCCCCC)C(=O)CN(CC(CC)CCCC)C(=O)CNC(CO)CO (centres unmarked) [Compound 105] (H-[N(CH(CH2OH)2)Gly][N(2-ethylhexyl)Gly][N(2-decanoyloxyethyl)Gly][N(2-decanoyloxyethyl)Gly][N(2-ethylhexyl)Gly][N(2-decanoyloxyethyl)Gly][N(2-decanoyloxyethyl)Gly]-NH2)	7.51
2. CCCCCCCCCC(=O)OCCCN(CC(=O)N(CC(=O)N(CCCCCC)CC(=O)N(CCCOC(=O)CCCCCCCCC)CC(=O)N(CC(=O)N(CCCCCC)CC(N)=O)CC(CC)CCCC)CC(CC)CCCC)C(=O)CNC(CO)CO (centres unmarked) [Compound 55] (H-[N(CH(CH2OH)2)Gly][Gly(N-(3-decanoyloxypropyl))][N(2-ethylhexyl)Gly][NHexGly][Gly(N-(3-decanoyloxypropyl))][N(2-ethylhexyl)Gly][NHexGly]-NH2)	4.59
3. CCCCCCCCCC(=O)OCCN(CC(=O)N(CCOC(=O)CCCCCCCCC)CC(=O)N(CC(=O)N(CCOC(=O)CCCCCCCCC)CC(=O)N(CCOC(=O)CCCCCCCCC)CC(=O)N(CC(N)=O)CC(CC)CCCC)CC(CC)CCCC)C(=O)CNC(CO)CO (centres unmarked) [Compound 16] (H-[N(CH(CH2OH)2)Gly][N(2-decanoyloxyethyl)Gly][N(2-decanoyloxyethyl)Gly][N(2-ethylhexyl)Gly][N(2-decanoyloxyethyl)Gly][N(2-decanoyloxyethyl)Gly][N(2-ethylhexyl)Gly]-NH2)	6.65

Request the reported % of injected dose remaining in liver associated with CCCCCCCCCCN(CC(=O)N(CC(=O)N(CCCOC(=O)CCCCCCCCC)CC(N)=O)CC(CC)CCCC)C(=O)CN(CC(CC)CCCC)C(=O)CN(CCCOC(=O)CCCCCCCCC)C(=O)CN(CC(CC)CCCC)C(=O)CNC(CO)CO (centres unmarked) [Compound 58] (H-[N(CH(CH2OH)2)Gly][N(2-ethylhexyl)Gly][Gly(N-(3-decanoyloxypropyl))][N(2-ethylhexyl)Gly][NDecylGly][N(2-ethylhexyl)Gly][Gly(N-(3-decanoyloxypropyl))]-NH2)
−1.37

###

Entries and their measured mean percent encapsulation of RNA follow.
test system: mRNA; experiment: mRNA encapsulation (modified Quant-iT RiboGreen assay); format: physicochemical; conditions: RiboGreen, without vs with Triton X-100
Starred links: 1 amine or outer side, 2 acyl side, 3 side chain; linkers in the order of their positions; H or OH if unused. Non-standard residues stand in square brackets, D forms with d. Residues, ends and D or L forms follow the SMILES beside them. *: point of attachment. Gly(N-(3-decanoyloxypropyl)) = CCCCCCCCCC(=O)OCCCNCC(=O)O; Gly(N-3-morpholinopropyl) = O=C(O)CNCCCN1CCOCC1; N(2-ethylhexyl)Gly = CCCCC(CC)CNCC(=O)O; X1 = CCCCC(CC)CSSCCN(CC(=O)[*:2])[*:1]; N(CH(CH2OH)2)Gly = O=C(O)CNC(CO)CO; N(octyl)Gly = CCCCCCCCNCC(=O)O; For = O=C*
Please reply with the bare figure in % and do not write the unit itself.

Please report the recorded mean percent encapsulation of RNA for CCCCCCCCCC(=O)OCCCN(C=O)CC(=O)N(CC(=O)N(CCCOC(=O)CCCCCCCCC)CC(=O)N(CCCN1CCOCC1)CC(=O)N(CCCOC(=O)CCCCCCCCC)CC(=O)N(CC(=O)N(CCCOC(=O)CCCCCCCCC)CC(N)=O)CC(CC)CCCC)CC(CC)CCCC (centres unmarked) [Compound 121] (For-[Gly(N-(3-decanoyloxypropyl))][N(2-ethylhexyl)Gly][Gly(N-(3-decanoyloxypropyl))][Gly(N-3-morpholinopropyl)][Gly(N-(3-decanoyloxypropyl))][N(2-ethylhexyl)Gly][Gly(N-(3-decanoyloxypropyl))]-NH2) .
72.1

What do we get for CCCCCCCCCC(=O)OCCCN(CC(=O)N(CCSSCC(CC)CCCC)CC(N)=O)C(=O)CN(CCCCCCCC)C(=O)CN(CCSSCC(CC)CCCC)C(=O)CN(CCCOC(=O)CCCCCCCCC)C(=O)CN(CCCCCCCC)C(=O)CNC(CO)CO (centres unmarked) [Compound 129] (H-[N(CH(CH2OH)2)Gly][N(octyl)Gly][Gly(N-(3-decanoyloxypropyl))][X1][N(octyl)Gly][Gly(N-(3-decanoyloxypropyl))][X1]-NH2) ?
89.2
